Source of measurements: paper PMC3742241

This listing pairs compounds with measured IC50 at 48 h.
# PROCEDURE TEXT: In vitro cytotoxicity assay (MTT)
# Type: cell-based, Human
# CONDITION CONTEXT: human; HEK293 cells; 48 h; MTT

COMPOUND: CC1(C)Cc2c(ccc3ccccc23)C(NNC(=O)c2cccc(N)c2)=N1
COMPARATIVE SIGN: >
IC50 at 48 h / µM: 20
//
COMPOUND: Cc1ccccc1C(=O)N1CCN(CCNC(=O)C(=O)Nc2ccc(Br)cc2)CC1
COMPARATIVE SIGN: =
IC50 at 48 h / µM: 10.2
//
COMPOUND: Cc1ccc2ccc([C@H](Nc3ccccn3)c3ccc(C)c(C)c3)c(O)c2n1
COMPARATIVE SIGN: =
IC50 at 48 h / µM: 3.15
//
COMPOUND: COc1cc(CNCCc2ccc(S(N)(=O)=O)cc2)ccc1OCC(=O)NC(C)(C)C
COMPARATIVE SIGN: >
IC50 at 48 h / µM: 20
//
COMPOUND: CC1CCCc2sc3nc(SCC(=O)NC(=O)Nc4ccccc4)n(N)c(=O)c3c21 (stereo not shown)
COMPARATIVE SIGN: >
IC50 at 48 h / µM: 20
//
COMPOUND: CC1CCCc2sc3c(=O)n(N)c(SCC(=O)NC(=O)Nc4ccccc4)nc3c21 (stereo not shown)
COMPARATIVE SIGN: >
IC50 at 48 h / µM: 20
//
COMPOUND: CNC(=O)NC(=O)CSc1nc2sc(-c3ccccc3)cc2c(=O)n1N
COMPARATIVE SIGN: =
IC50 at 48 h / µM: 15.4

----------
# Tested on: Escherichia coli ATCC 25922
# PROCEDURE TEXT: In vitro MIC, broth microdilution, E. coli
# Assay type: cell-based
# CONDITION CONTEXT: ATCC25922, 5 × 10^5 CFU/mL, 16 h at 37 °C, read-out: MIC, Gram-negative bacteria, E. coli

COMPOUND: Cc1ccccc1C(=O)N1CCN(CCNC(=O)C(=O)Nc2ccc(Br)cc2)CC1 [ZINC08452043]
TESTED SYSTEM: Escherichia coli ATCC 25922
MIC (µg/mL): 16
//
COMPOUND: CCc1ccc(NC(=O)C(=O)NCCN2CCN(C(=O)c3ccc(Cl)cc3Cl)CC2)cc1 [ZINC06843697]
TESTED SYSTEM: Escherichia coli ATCC 25922
MIC (µg/mL): 16
//
COMPOUND: CCCC[n+]1c(N)c(C(=O)NCc2ccc(C)cc2)cc2c(=O)n3cccc(C)c3nc21 [ZINC02424508]
TESTED SYSTEM: Escherichia coli ATCC 25922
MIC (µg/mL): 16
//
COMPOUND: CN(C)CCCNC(=O)c1ccccc1NC(=O)c1ccc(-c2ccccc2)cc1 [ZINC10312776]
TESTED SYSTEM: Escherichia coli ATCC 25922
MIC (µg/mL): 64
//
COMPOUND: CC1CCCc2sc3nc(SCC(=O)NC(=O)Nc4ccccc4)n(N)c(=O)c3c21 (centres unmarked) [ZINC19797059]
TESTED SYSTEM: Escherichia coli ATCC 25922
MIC (µg/mL): 64
//
COMPOUND: CC1(C)Cc2c(ccc3ccccc23)C(NNC(=O)c2cccc(N)c2)=N1 [ZINC00729256]
TESTED SYSTEM: Escherichia coli ATCC 25922
MIC (µg/mL): 32
//
COMPOUND: Cc1ccc2ccc([C@H](Nc3ccccn3)c3ccc(C)c(C)c3)c(O)c2n1 [ZINC02086896]
TESTED SYSTEM: Escherichia coli ATCC 25922
MIC (µg/mL): 32
//
COMPOUND: CNC(=O)NC(=O)CSc1nc2sc(-c3ccccc3)cc2c(=O)n1N [ZINC02181060]
TESTED SYSTEM: Escherichia coli ATCC 25922
MIC (µg/mL): 8
